Recorded MIC Coagulase Negative Staphylococcus (GC 4548) values for a group of compounds are listed next.
# Test system: Staphylococcus sp.
# PROTOCOL SUMMARY: in vitro antibacterial evaluation, MIC by broth dilution
# Assay type: cell-based
# TEST PARAMETERS: strain GC 4548; broth dilution, 18 hours at 35° C.
RECORDED ENDPOINT: MIC Coagulase Negative Staphylococcus (GC 4548) (µg/mL)

COMPOUND: CC(c1ccccc1)C1NC(=O)CNC(=O)C(CO)NC(=O)C(CC2CN(Cc3ccccc3)C(=NCc3ccccc3)N2C2OC(CO)C(O)C(O)C2O)NC(=O)C(CC2CN(Cc3ccccc3)C(=NCc3ccccc3)N2Cc2ccccc2)NC(=O)C(Cc2ccc(OC3OC(CO)C(OC4OC(CO)C(O)C(O)C4O)C(O)C3O)cc2)NC1=O (centres unmarked)
READOUT RELATION: >
OBS VALUE: 128

COMPOUND: CC(c1ccccc1)C1NC(=O)CNC(=O)C(CO)NC(=O)C(C(O)C2CNC(=N)N2C2OC(CO)C(O)C(O)C2O)NC(=O)C(C(O)C2CNC(=N)N2)NC(=O)C(Cc2ccc3oc(SCC(=O)c4ccccc4)nc3c2)NC1=O (centres unmarked)
READOUT RELATION: =
OBS VALUE: 8

COMPOUND: CC(c1ccccc1)C1NC(=O)CNC(=O)C(CO)NC(=O)C(C(O)C2CNC(=N)N2C2OC(CO)C(O)C(O)C2O)NC(=O)C(C(O)C2CNC(=N)N2)NC(=O)C(Cc2ccc3oc(C=C(c4ccccc4)c4ccccc4)nc3c2)NC1=O (centres unmarked)
READOUT RELATION: =
OBS VALUE: 8

COMPOUND: CC(c1ccccc1)C1NC(=O)CNC(=O)C(CO)NC(=O)C(C(O)C2CNC(=N)N2C2OC(CO)C(O)C(O)C2O)NC(=O)C(C(O)C2CNC(=N)N2)NC(=O)C(Cc2ccc(OC3OC(CO)C(OC4OC5COC(c6ccc(Oc7ccc(C(C)(C)C)cc7)cc6)OC5C(O)C4O)C(O)C3O)cc2)NC1=O (centres unmarked)
READOUT RELATION: =
OBS VALUE: 2

COMPOUND: CCCCN1CC(C(O)C2NC(=O)C(C(O)C3CNC(=N)N3)NC(=O)C(Cc3ccc(OC4OC(CO)C(OC5OC6COC7(OC6C(O)C5O)C5CC6CC(C5)CC7C6)C(O)C4O)cc3)NC(=O)C(C(C)c3ccccc3)NC(=O)CNC(=O)C(CO)NC2=O)N(C2OC(CO)C(O)C(O)C2O)C1=N (centres unmarked)
READOUT RELATION: =
OBS VALUE: 1

COMPOUND: CC(c1ccccc1)C1NC(=O)CNC(=O)C(CO)NC(=O)C(C(O)C2CNC(=N)N2C2OC(CO)C(O)C(O)C2O)NC(=O)C(C(O)C2CNC(=N)N2)NC(=O)C(Cc2ccc(O)c(NC=O)c2)NC1=O (centres unmarked)
READOUT RELATION: =
OBS VALUE: 128

COMPOUND: Cc1ccc(Oc2ccc(C3OCC4OC(OC5C(CO)OC(Oc6ccc(CC7NC(=O)C(C(C)c8ccccc8)NC(=O)CNC(=O)C(CO)NC(=O)C(C(O)C8CNC(=N)N8C8OC(CO)C(O)C(O)C8O)NC(=O)C(C(O)C8CNC(=N)N8)NC7=O)cc6)C(O)C5O)C(O)C(O)C4O3)cc2)cc1 (centres unmarked)
READOUT RELATION: =
OBS VALUE: 0.5

COMPOUND: CC(c1ccccc1)C1NC(=O)CNC(=O)C(CO)NC(=O)C(CC2CNC(=N)N2C2OC(CO)C(O)C(O)C2O)NC(=O)C(CC2CNC(=N)N2)NC(=O)C(Cc2ccc(OC3OC(CO)C(OC4OC5COC6(OC5C(O)C4O)C4CC5CC(C4)CC6C5)C(O)C3O)cc2)NC1=O (centres unmarked)
READOUT RELATION: =
OBS VALUE: 2

----------
Recorded MIC Coagulase Negative Staphylococcus (GC 4547) values for a group of compounds are listed next.
# Tested on: Staphylococcus sp.
# PROTOCOL SUMMARY: in vitro antibacterial evaluation, MIC by broth dilution
# Format: cell-based
# TEST PARAMETERS: strain GC 4547; broth dilution, 18 hours at 35° C.
RECORDED ENDPOINT: MIC Coagulase Negative Staphylococcus (GC 4547) (µg/mL)

COMPOUND: CC(c1ccccc1)C1NC(=O)CNC(=O)C(CO)NC(=O)C(C(O)C2CNC(=N)N2C2OC(CO)C(O)C(O)C2O)NC(=O)C(C(O)C2CNC(=N)N2)NC(=O)C(Cc2ccc(OC3OC(CO)C(OC4OC5COC(c6ccccc6)OC5C(O)C4O)C(O)C3O)c(I)c2)NC1=O (stereo not shown)
UNITS: µg/mL
READOUT RELATION: =
OBS VALUE: 32
//
COMPOUND: N=C1NCC(C(O)C2NC(=O)C(Cc3ccc(OC4OC(CO)C(OC5OC6COC(Cc7ccccc7)OC6C(O)C5O)C(O)C4O)cc3)NC(=O)C(CC3CCCCC3)NC(=O)CNC(=O)C(CO)NC(=O)C(C(O)C3CNC(=N)N3C3OC(CO)C(O)C(O)C3O)NC2=O)N1 (stereo not shown)
UNITS: µg/mL
READOUT RELATION: =
OBS VALUE: 2
//
COMPOUND: CC(C)C(=O)Nc1cc(CC2NC(=O)C(C(C)c3ccccc3)NC(=O)CNC(=O)C(CO)NC(=O)C(C(O)C3CNC(=N)N3C3OC(CO)C(O)C(O)C3O)NC(=O)C(C(O)C3CNC(=N)N3)NC2=O)ccc1O (stereo not shown)
UNITS: µg/mL
READOUT RELATION: >
OBS VALUE: 128
//
COMPOUND: CCCCCCCN1CC(C(O)C2NC(=O)C(C(O)C3CNC(=N)N3)NC(=O)C(Cc3ccc(OC4OC(CO)C(OC5OC6COC7(OC6C(O)C5O)C5CC6CC(C5)CC7C6)C(O)C4O)cc3)NC(=O)C(C(C)c3ccccc3)NC(=O)CNC(=O)C(CO)NC2=O)N(C2OC(CO)C(O)C(O)C2O)C1=N (stereo not shown)
UNITS: µg/mL
READOUT RELATION: =
OBS VALUE: 2

----------
# System: Streptococcus sp.
# PROTOCOL SUMMARY: in vitro antibacterial evaluation, MIC by broth dilution
# Format: cell-based
# TEST PARAMETERS: broth dilution, inoculum 5×10^5 CFU/mL, 18 hours at 35° C.; strain GC 1894

MOLECULE: COc1ccc2cc(COCC3OC(OC4C(CO)OC(Oc5ccc(CC6NC(=O)C(C(C)c7ccccc7)NC(=O)CNC(=O)C(CO)NC(=O)C(CC7CNC(=N)N7C7OC(CO)C(O)C(O)C7O)NC(=O)C(CC7CNC(=N)N7)NC6=O)cc5)C(O)C4O)C(O)C(O)C3O)ccc2c1 (centres unmarked) [Example 245]
READOUT RELATION: =
MIC Streptococcus pneumoniae (GC 1894), µg/mL: 1

MOLECULE: COc1ccc(COC2C(CO)OC(OC3C(CO)OC(Oc4ccc(CC5NC(=O)C(C(C)c6ccccc6)NC(=O)CNC(=O)C(CO)NC(=O)C(C(O)C6CNC(=N)N6C6OC(CO)C(O)C(O)C6O)NC(=O)C(C(O)C6CNC(=N)N6)NC5=O)cc4)C(O)C3O)C(O)C2O)cc1OCc1ccccc1 (centres unmarked) [Example 239a]
READOUT RELATION: <
MIC Streptococcus pneumoniae (GC 1894), µg/mL: 0.06

----------
Recorded MIC Enterococcus faecium (GC 4557) values for a group of compounds are listed next.
# System: Enterococcus sp.
# PROTOCOL SUMMARY: in vitro antibacterial evaluation, MIC by broth dilution
# Type: cell-based
# TEST PARAMETERS: broth dilution, inoculum 5×10^5 CFU/mL, 18 hours at 35° C.; strain GC 4557

COMPOUND: CC(c1ccccc1)C1NC(=O)CNC(=O)C(CO)NC(=O)C(C(O)C2CNC(=N)N2C2OC(CO)C(O)C(O)C2O)NC(=O)C(C(O)C2CNC(=N)N2)NC(=O)C(Cc2ccc(OC3OC(CO)C(OC4OC5COC(c6cccc(Oc7cccc(C(F)(F)F)c7)c6)OC5C(O)C4O)C(O)C3O)cc2)NC1=O (stereo not shown)
MIC Enterococcus faecium (GC 4557), µg/mL: 32

COMPOUND: CC(c1ccccc1)C1NC(=O)CNC(=O)C(CO)NC(=O)C(CC2CNC(=N)N2C2OC(CO)C(O)C(O)C2O)NC(=O)C(CC2CNC(=N)N2)NC(=O)C(Cc2ccc(OC3OC(CO)C(OC4OC5COC6(OC5C(O)C4O)C4CC5CC(C4)CC6C5)C(O)C3O)cc2)NC1=O (stereo not shown)
MIC Enterococcus faecium (GC 4557), µg/mL: 4

COMPOUND: CC(c1ccccc1)C1NC(=O)CNC(=O)C(CO)NC(=O)C(C(O)C2CN(Cc3ccc(C(F)(F)F)cc3)C(=N)N2C2OC(CO)C(O)C(O)C2O)NC(=O)C(C(O)C2CNC(=N)N2)NC(=O)C(Cc2ccc(OC3OC(CO)C(OC4OC5COC6(OC5C(O)C4O)C4CC5CC(C4)CC6C5)C(O)C3O)cc2)NC1=O (stereo not shown)
MIC Enterococcus faecium (GC 4557), µg/mL: 2
